Method: Mean residence time in Beagle dog at 1 mg/kg, iv
Format: ADME, organism-based, Canis lupus familiaris
Set-up: dose 1 mg/kg, route intravenous
Experimental Conditions: in vivo
Parameter: MRT

May I ask what MRT has been recorded for c1cncc(Nc2ncc(-c3ccncn3)c(-c3ccco3)n2)c1 ? 42 min

====

A set of compounds tested on Adenosine receptor A1 (Homo sapiens, UniProt P30542), with measured pKi:
pKi: −log10 of the molar value.

Worked set:
1) c1cncc(Nc2ncc(-c3ccncn3)c(-c3ccco3)n2)c1 ... < 6.00
2) O=c1ccc(Nc2ncc(-c3ccncn3)c(-c3ccco3)n2)c[nH]1 ... < 5.00
3) c1coc(-c2nc(Nc3cnccn3)ncc2-c2ccncn2)c1 ... < 5.00
4) Cn1cc(Nc2ncc(-c3ccncn3)c(-c3ccco3)n2)ccc1=O ... < 5.00

// switching to the query compound
May I ask what pKi has been recorded for COc1ccc(Nc2ncc(-c3ccncn3)c(-c3ccco3)n2)cn1 ? < 5.00

====

Method: Tmax in Beagle dog at 10 mg/kg, po
Type: ADME, organism-based, Canis lupus familiaris
Set-up: dose 10 mg/kg, route oral
Experimental Conditions: in vivo
Parameter: Tmax (h)
Kindly answer with a numeric value in h, unit omitted.

May I ask what Tmax has been recorded for c1cncc(Nc2ncc(-c3ccncn3)c(-c3ccco3)n2)c1 ? 1.3

====

Method: Bioavailability in Wistar rat at 10 mg/kg, po
Format: ADME, organism-based
Experimental Conditions: in vivo
Parameter: bioavailability (%)
Kindly answer with a numeric value in %, unit omitted.

May I ask what bioavailability has been recorded for c1cncc(Nc2ncc(-c3ccncn3)c(-c3ccco3)n2)c1 ? 75

====

Method: Volume of distribution at steady state in Wistar rat at 1 mg/kg, iv
Type: ADME, organism-based
Parameters: dose 1 mg/kg, route intravenous
Experimental Conditions: in vivo, read-out: Vdss
Parameter: Vd (L/kg)
Kindly answer with a numeric value in L/kg, unit omitted.

May I ask what Vd has been recorded for c1cncc(Nc2ncc(-c3ccncn3)c(-c3ccco3)n2)c1 ? 0.5

====

Method: Clearance in Beagle dog at 1 mg/kg, iv
Format: ADME, organism-based, Canis lupus familiaris
Design: dose 1 mg/kg, route intravenous
Experimental Conditions: in vivo
Parameter: clearance (mL/min/kg)
Kindly answer with a numeric value in mL/min/kg, unit omitted.

May I ask what clearance has been recorded for c1cncc(Nc2ncc(-c3ccncn3)c(-c3ccco3)n2)c1 ? 28

====

Method: Mean residence time in Wistar rat at 1 mg/kg, iv
Format: ADME, organism-based
Design: dose 1 mg/kg, route intravenous
Experimental Conditions: in vivo
Parameter: MRT (min)
Kindly answer with a numeric value in min, unit omitted.

May I ask what MRT has been recorded for c1cncc(Nc2ncc(-c3ccncn3)c(-c3ccco3)n2)c1 ? 18

====

Test Target: Adenosine receptor A1 (Homo sapiens, UniProt P30542)
Method: Displacement of [3H]DPCPX from human A1 receptor expressed in CHO cells
Parameter: IC50 (nM)
Kindly answer with a numeric value in nM, unit omitted.

May I ask what IC50 has been recorded for c1coc(-c2nc(Nc3cncnc3)ncc2-c2ccncn2)c1 ? 45

====

Test Target: Adenosine receptor A1 (Homo sapiens) (UniProt P30542)
Sequence (P30542 whole entry): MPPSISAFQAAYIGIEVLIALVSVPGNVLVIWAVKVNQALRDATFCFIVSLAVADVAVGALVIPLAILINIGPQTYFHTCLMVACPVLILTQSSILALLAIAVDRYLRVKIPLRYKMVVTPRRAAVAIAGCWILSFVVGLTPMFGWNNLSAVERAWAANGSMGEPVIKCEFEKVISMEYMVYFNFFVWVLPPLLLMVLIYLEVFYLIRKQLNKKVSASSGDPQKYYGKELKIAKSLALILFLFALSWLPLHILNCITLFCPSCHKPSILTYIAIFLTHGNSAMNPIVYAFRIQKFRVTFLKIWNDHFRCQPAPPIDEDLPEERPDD
Method: Displacement of [3H]DPCPX from human A1 receptor expressed in CHO cells at 10000 nM
Type: cell-based
Parameter: inhibition (%)
Kindly answer with a numeric value in %, unit omitted.

1. O=c1ccc(Nc2ncc(-c3ccncn3)c(-c3ccco3)n2)cn1CC1CC1 ... 28
2. COc1ncc(Nc2ncc(-c3ccncn3)c(-c3ccco3)n2)cn1 ... 45
3. c1coc(-c2nc(Nc3cnccn3)ncc2-c2ccncn2)c1 ... 30
4. O=c1ccc(Nc2ncc(-c3ccncn3)c(-c3ccco3)n2)c[nH]1 ... 31
5. N#Cc1cncc(Nc2ncc(-c3ccncn3)c(-c3ccco3)n2)c1 ... 22

Form field - read-out: inhibition; system: Adenosine receptor A1 (Homo sapiens) (UniProt P30542); submitted item: COc1ccc(Nc2ncc(-c3ccncn3)c(-c3ccco3)n2)cn1 25

Also need [O-][n+]1cccc(Nc2ncc(-c3ccncn3)c(-c3ccco3)n2)c1 , thanks. 38

Also need Cn1cc(Nc2ncc(-c3ccncn3)c(-c3ccco3)n2)ccc1=O , thanks. 17

====

Test Target: Adenosine receptor A2b (Mus musculus)
Sequence (Q60614 whole entry): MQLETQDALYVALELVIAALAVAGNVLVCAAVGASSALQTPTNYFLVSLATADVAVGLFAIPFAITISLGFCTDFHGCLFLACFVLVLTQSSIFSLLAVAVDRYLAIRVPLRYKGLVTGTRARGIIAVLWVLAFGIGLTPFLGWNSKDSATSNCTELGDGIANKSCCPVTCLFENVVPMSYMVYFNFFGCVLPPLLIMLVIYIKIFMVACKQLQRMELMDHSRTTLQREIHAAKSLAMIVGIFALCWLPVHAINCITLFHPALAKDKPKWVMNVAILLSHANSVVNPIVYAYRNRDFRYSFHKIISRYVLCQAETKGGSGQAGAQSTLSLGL
Method: Activity at mouse A2B receptor expressed in CHO cells assessed as inhibition of NECA-induced intracellular cAMP levels by ELISA
Format: functional, cell-based
Parameter: pIC50
In plain terms, pIC50 is the concentration in mol/L turned into minus its base-10 logarithm.

May I ask what pIC50 has been recorded for c1cncc(Nc2ncc(-c3ccncn3)c(-c3ccco3)n2)c1 ? 6.46

====

Method: Half life in Wistar rat at 1 mg/kg, iv
Type: ADME, organism-based
Design: dose 1 mg/kg, route intravenous
Experimental Conditions: in vivo
Parameter: half-life (min)
Kindly answer with a numeric value in min, unit omitted.

May I ask what half-life has been recorded for c1cncc(Nc2ncc(-c3ccncn3)c(-c3ccco3)n2)c1 ? 12

====

Test Target: Adenosine receptor A2b (Homo sapiens, UniProt P29275)
Sequence (P29275 whole entry): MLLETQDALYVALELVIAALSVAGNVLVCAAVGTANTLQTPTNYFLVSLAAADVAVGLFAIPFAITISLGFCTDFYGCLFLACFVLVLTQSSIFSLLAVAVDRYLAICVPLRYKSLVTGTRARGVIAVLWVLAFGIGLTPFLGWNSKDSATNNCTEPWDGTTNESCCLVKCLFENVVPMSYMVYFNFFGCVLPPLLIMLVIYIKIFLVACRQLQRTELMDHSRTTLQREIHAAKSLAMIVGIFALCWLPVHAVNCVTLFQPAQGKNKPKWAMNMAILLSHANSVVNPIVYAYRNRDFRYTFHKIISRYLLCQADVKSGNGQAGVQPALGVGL
Method: Activity at human A2B receptor expressed in HEK293 cells assessed as inhibition of NECA-induced intracellular cAMP levels by ELISA
Parameter: pIC50
In plain terms, pIC50 is the concentration in mol/L turned into minus its base-10 logarithm.

Form field - read-out: pIC50; system: Adenosine receptor A2b (Homo sapiens, UniProt P29275); submitted item: c1cncc(Nc2ncc(-c3ccncn3)c(-c3ccco3)n2)c1 6.49

====

Method: AUC in Wistar rat at 10 mg/kg, po
Assay type: ADME, organism-based
Set-up: dose 10 mg/kg, route oral
Experimental Conditions: plasma
Parameter: AUC
Report as: number unit

May I ask what AUC has been recorded for c1cncc(Nc2ncc(-c3ccncn3)c(-c3ccco3)n2)c1 ? 16 µM·h

====

Test Target: Adenosine receptor A2a (Homo sapiens)
Sequence (P29274 whole entry): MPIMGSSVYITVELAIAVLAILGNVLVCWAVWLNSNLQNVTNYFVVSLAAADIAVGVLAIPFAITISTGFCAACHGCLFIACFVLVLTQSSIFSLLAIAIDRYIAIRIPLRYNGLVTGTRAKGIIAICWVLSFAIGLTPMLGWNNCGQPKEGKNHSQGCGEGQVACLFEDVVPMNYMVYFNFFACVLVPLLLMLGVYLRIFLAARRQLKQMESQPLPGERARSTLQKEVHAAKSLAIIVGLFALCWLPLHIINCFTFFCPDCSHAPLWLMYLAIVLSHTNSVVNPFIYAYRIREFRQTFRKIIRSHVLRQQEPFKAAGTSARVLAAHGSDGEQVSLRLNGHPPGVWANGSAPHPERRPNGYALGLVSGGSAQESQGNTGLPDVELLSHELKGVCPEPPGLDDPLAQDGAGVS
Method: Displacement of [3H]ZM-241385 from human A2A receptor expressed in HeLa cells at 2500 nM
Type: cell-based
Listed compounds paired with reported inhibition
Kindly answer with a numeric value in %, unit omitted.

May I ask what inhibition has been recorded for O=c1ccc(Nc2ncc(-c3ccncn3)c(-c3ccco3)n2)c[nH]1 ? 25

Also need Cn1cc(Nc2ncc(-c3ccncn3)c(-c3ccco3)n2)ccc1=O , thanks. 20

Also need [O-][n+]1cccc(Nc2ncc(-c3ccncn3)c(-c3ccco3)n2)c1 , thanks. 24

Also need c1cncc(Nc2ncc(-c3ccncn3)c(-c3ccco3)n2)c1 , thanks. 40

Also need c1coc(-c2nc(Nc3cncnc3)ncc2-c2ccncn2)c1 , thanks. 29

Also need COc1ncc(Nc2ncc(-c3ccncn3)c(-c3ccco3)n2)cn1 , thanks. 25

Also need COc1ccc(Nc2ncc(-c3ccncn3)c(-c3ccco3)n2)cn1 , thanks. 21

Also need N#Cc1cncc(Nc2ncc(-c3ccncn3)c(-c3ccco3)n2)c1 , thanks. 37

Also need O=c1ccc(Nc2ncc(-c3ccncn3)c(-c3ccco3)n2)cn1CC1CC1 , thanks. 38.5

Also need c1coc(-c2nc(Nc3cnccn3)ncc2-c2ccncn2)c1 , thanks. 21

====

Method: Tmax in Wistar rat at 10 mg/kg, po
Format: ADME, organism-based
Design: dose 10 mg/kg, route oral
Experimental Conditions: in vivo
Parameter: Tmax (min)
Kindly answer with a numeric value in min, unit omitted.

May I ask what Tmax has been recorded for c1cncc(Nc2ncc(-c3ccncn3)c(-c3ccco3)n2)c1 ? 18

Reference source for all entries: ChEMBL document CHEMBL1143065
